Tested on: Phakopsora pachyrhizi (F129L)
method-description: Protective control of soybean rust on soybeans (PHAKPA P2)
Format: in vivo
reported-conditions: protective P2, 4 ppm, F129L isolate
Just a reminder that ties go to criterion not met: only % PHAKPA (F129L) Disease level P2 at 4 ppm strictly below 40% counts as criterion met.

Please review the entries below; each comes with its answer.
hey, is % PHAKPA (F129L) Disease level P2 at 4 ppm for CO/N=C(/C(=O)OC)c1cccc(C)c1CO/N=C(\C)c1ccc(F)c(F)c1OC(F)(F)F lower than 40% or not?
criterion met

And what about the compound C#Cc1cccc(/C(C)=N/OCc2c(C)cccc2/C(=N\OC)C(=O)NC)c1F ?
criterion met

And what about the compound CO/N=C(/C(=O)OC)c1cccc(C)c1CO/N=C(\C)c1ccc(Cc2ccccc2)cc1C(F)(F)F ?
criterion met

More entries:
hey, is % PHAKPA (F129L) Disease level P2 at 4 ppm for CNC(=O)/C(=N/OC)c1cccc(C)c1CO/N=C(\C)c1ccc(-c2ccccc2)cc1OC(F)(F)F lower than 40% or not?
criterion not met

And what about the compound CO/C=C(/C(=O)OC)c1cccc(C)c1CO/N=C(\C)c1ccc(-c2ccc(F)cc2)cc1C(F)(F)F ?
criterion met
